molecular target: Receptor-interacting serine/threonine-protein kinase 2 (Homo sapiens); assay: Inhibition of recombinant RIPK2 (unknown origin) expressed in insect cells using RBER-CHKtide as substrate assessed as inhibition of tyrosine autophosphorylation preincubated with compound for 15 mins followed by substrate addition and measured after 30 mins; design: species or system Insect cell
recorded.metric: IC50 (nM)

[A] Clc1cc2cc(c1)-c1cnn3ccc(nc13)NCCOCCO2
[B] c1cc2cc(n1)NCCOCCNc1ccn3ncc-2c3n1
Problem: Which gives the smaller IC50 number: A or B ? // caller expects the label of the chosen entry
Result: A

----------
biological target: Receptor-interacting serine/threonine-protein kinase 2 (Homo sapiens, UniProt O43353)
Sequence (O43353 whole entry): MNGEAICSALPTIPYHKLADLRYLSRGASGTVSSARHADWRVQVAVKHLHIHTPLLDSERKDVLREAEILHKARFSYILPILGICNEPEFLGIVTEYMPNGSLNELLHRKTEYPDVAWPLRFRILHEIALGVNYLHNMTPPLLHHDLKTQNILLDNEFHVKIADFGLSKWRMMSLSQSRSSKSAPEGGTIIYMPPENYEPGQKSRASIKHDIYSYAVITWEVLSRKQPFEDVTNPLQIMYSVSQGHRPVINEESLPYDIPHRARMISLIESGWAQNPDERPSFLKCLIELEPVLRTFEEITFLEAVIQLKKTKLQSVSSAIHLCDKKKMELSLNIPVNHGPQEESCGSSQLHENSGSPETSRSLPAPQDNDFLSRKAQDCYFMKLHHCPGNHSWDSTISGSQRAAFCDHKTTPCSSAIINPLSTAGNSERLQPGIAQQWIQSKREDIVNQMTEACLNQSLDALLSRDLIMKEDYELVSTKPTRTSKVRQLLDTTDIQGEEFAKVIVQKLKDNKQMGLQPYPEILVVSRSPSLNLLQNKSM
pIC50: −log10 of the molar value.
recorded.metric: pIC50

[a] Nc1nccc(-c2c(-c3ccc(F)cc3)ncn2C2CCNCC2)n1
[b] O=[N+]([O-])c1ccc(-c2nc(-c3ccncc3)c(-c3ccc(F)cc3)[nH]2)cc1
Problem: Lower pIC50: a or b ? Reply with the label of the item you choose.
Result: a
(a: 6.15, b: 7.15)
